biological target: IDO1 (Homo sapiens); assay: IDO1 Human Whole Blood Assay; type: cell-based; set-up: Human whole blood was drawn in sodium heparin coated tubes from healthy internal donors; from tissue; host or cells: human whole blood from healthy donors, stimulated with LPS and IFNγ; conditions: LPS and IFNγ 100 ng/mL, 18 h, kynurenine by LC/MS/MS, form screened: Neutral
Sequence (P14902 whole entry): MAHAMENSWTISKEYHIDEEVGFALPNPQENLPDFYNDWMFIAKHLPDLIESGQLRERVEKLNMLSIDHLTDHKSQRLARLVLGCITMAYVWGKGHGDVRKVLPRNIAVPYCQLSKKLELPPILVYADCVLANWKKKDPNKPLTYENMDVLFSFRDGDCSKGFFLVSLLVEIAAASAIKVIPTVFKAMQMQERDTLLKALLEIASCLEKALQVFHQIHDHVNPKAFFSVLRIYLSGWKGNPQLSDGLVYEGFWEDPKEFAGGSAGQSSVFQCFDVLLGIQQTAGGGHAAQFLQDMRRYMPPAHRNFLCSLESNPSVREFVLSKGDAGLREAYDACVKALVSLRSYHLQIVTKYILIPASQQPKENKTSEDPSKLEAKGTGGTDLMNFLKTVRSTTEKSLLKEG
pIC50: −log10 of the molar value.
Measure Name: pIC50

molecule=N#Cc1cccc(C(=O)Nc2ccc(C3(C(=O)Nc4ccc(F)cc4)COC3)nc2)c1 quantitative_readout=6.36

[P] CCCNC(=O)C1(c2ccc(NC(=O)c3cccc(Cl)c3)cc2)COC1
[Q] CC1CC1NC(=O)C1(c2ccc(NC(=O)c3cccc(Cl)c3)cc2)COC1 (single isomer, unassigned)
Higher pIC50 between P and Q ? The response must carry the label of the picked entry.
Q
(Q: 6.49, P: 5.81)

###

biological target: UniProtKB P14902; assay: IDO1 Cellular Assay in Hela Cells Stimulated with IFNγ; settings: Hela IC50 (nM), Hela cells stimulated with IFNγ 100 ng/mL, 300 uM L-tryptophan, about 48 hours; form screened: Neutral
Measure Name: IC50 (nM)

compound="CC1CC1NC(=O)C1(c2ccc(NC(=O)c3cccc(Cl)c3)cc2)COC1 (single isomer, unassigned) [Example 4]" measure_name=IC50 quantitative_readout=12
compound=CCCNC(=O)C1(c2ccc(NC(=O)c3cccc(Cl)c3)cc2)COC1 measure_name=IC50 quantitative_readout=25
compound=N#Cc1cccc(C(=O)Nc2ccc(C3(C(=O)Nc4ccc(F)cc4)COC3)nc2)c1 measure_name=IC50 quantitative_readout=3
compound="CC1CC1NC(=O)C1(c2ccc(NC(=O)c3cccc(Cl)c3)cc2)COC1 (single isomer, unassigned) [Example 9]" measure_name=IC50 quantitative_readout=216
compound=Cc1cc(C2(C(=O)Nc3ccc(F)cc3)COC2)ncc1NC(=O)c1cccc(C#N)c1 measure_name=IC50 quantitative_readout=58
compound="CC1CC1NC(=O)C1(c2ccc(NC(=O)c3cccc(Cl)c3)cc2)COC1 (single isomer, unassigned) [Example 8]" measure_name=IC50 quantitative_readout=85
compound=Cc1cc(NC(=O)c2cccc(Cl)c2)cnc1C1(C(=O)Nc2ccc(F)cc2)COC1 measure_name=IC50 quantitative_readout=205
compound=O=C(Nc1ccc(C2(C(=O)NCCC(F)(F)F)COC2)cc1)c1cccc(Cl)c1 measure_name=IC50 quantitative_readout=51
compound=O=C(Nc1ccc(C2(C(=O)Nc3ccc(F)cc3)COC2)cc1)c1cccc(Cl)c1F measure_name=IC50 quantitative_readout=3
compound="CC1CC1NC(=O)C1(c2ccc(NC(=O)c3cccc(Cl)c3)cc2)COC1 (single isomer, unassigned) [Example 10]" measure_name=IC50 quantitative_readout=352

[A] O=C(Nc1ccc(C2(C(=O)NCC3CC3)COC2)cc1)c1cccc(Cl)c1
[B] Cc1cc(C2(C(=O)Nc3ccc(F)cc3)COC2)ncc1NC(=O)c1cccc(Cl)c1
Higher IC50 between A and B ? The response must carry the label of the picked entry.
A

###

Recorded pIC50 by entry
target: TDO (Homo sapiens, UniProt P48775); conditions: read-out: SW48 IC50; SW48 cells, 300 uM L-tryptophan, about 48 hours; form screened: Neutral
Sequence (P48775 whole entry): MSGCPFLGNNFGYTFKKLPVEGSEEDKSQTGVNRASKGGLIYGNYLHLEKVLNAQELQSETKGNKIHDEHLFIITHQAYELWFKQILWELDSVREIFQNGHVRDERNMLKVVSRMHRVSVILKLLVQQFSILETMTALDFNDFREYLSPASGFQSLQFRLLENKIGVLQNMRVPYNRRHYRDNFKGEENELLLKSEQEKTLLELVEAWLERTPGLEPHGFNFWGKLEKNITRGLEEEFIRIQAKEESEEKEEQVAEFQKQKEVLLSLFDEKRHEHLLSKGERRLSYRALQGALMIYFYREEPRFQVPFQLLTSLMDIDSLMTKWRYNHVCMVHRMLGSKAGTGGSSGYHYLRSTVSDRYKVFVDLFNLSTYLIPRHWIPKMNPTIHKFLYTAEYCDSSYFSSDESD
pIC50: −log10 of the molar value.

molecule="CC1CC1NC(=O)C1(c2ccc(NC(=O)c3cccc(Cl)c3)cc2)COC1 (single isomer, unassigned) [Example 9]" result="≤ 5.00"
molecule="CC1CC1NC(=O)C1(c2ccc(NC(=O)c3cccc(Cl)c3)cc2)COC1 (single isomer, unassigned) [Example 10]" result="≤ 5.00"

// switching to the query molecule
Give TDO (Homo sapiens, UniProt P48775) pIC50 for the following molecule: CC1CC1NC(=O)C1(c2ccc(NC(=O)c3cccc(Cl)c3)cc2)COC1 (single isomer, unassigned) [Example 4]
≤ 5.00
